Target: NA (neuraminidase) of A/Yamagata/103/2024 (Influenza A virus)
measure: IC50

CCC(CC)[C@H](NC(C)=O)[C@@H]1[C@H](O)[C@@H](C(=O)O)C[C@H]1N=C(N)N 110 pM

###

Target: NA (neuraminidase) of A/Yamagata/333/2023 (Influenza A virus, UniProt C3W5S3)

compound	assay_target	IC50, nM
CCC(CC)[C@H](NC(C)=O)[C@@H]1[C@H](O)[C@@H](C(=O)O)C[C@H]1N=C(N)N [Peramivir, peramivir]	NA (neuraminidase) of A/Yamagata/333/2023 (Influenza A virus, UniProt C3W5S3)	0.08
